target: mutant BEST1 R218C (Homo sapiens, UniProt O76090, R218C); construct: expressed in transfected cells; assay: YFP-based I- efflux assay in MDCKII cells co-expressing YFP and mutant BEST1 R218C; assay type: cell-based; conditions: 5 μM, compound addition for 24 h, FIGS. 6-8
Sequence (O76090 whole entry R218C): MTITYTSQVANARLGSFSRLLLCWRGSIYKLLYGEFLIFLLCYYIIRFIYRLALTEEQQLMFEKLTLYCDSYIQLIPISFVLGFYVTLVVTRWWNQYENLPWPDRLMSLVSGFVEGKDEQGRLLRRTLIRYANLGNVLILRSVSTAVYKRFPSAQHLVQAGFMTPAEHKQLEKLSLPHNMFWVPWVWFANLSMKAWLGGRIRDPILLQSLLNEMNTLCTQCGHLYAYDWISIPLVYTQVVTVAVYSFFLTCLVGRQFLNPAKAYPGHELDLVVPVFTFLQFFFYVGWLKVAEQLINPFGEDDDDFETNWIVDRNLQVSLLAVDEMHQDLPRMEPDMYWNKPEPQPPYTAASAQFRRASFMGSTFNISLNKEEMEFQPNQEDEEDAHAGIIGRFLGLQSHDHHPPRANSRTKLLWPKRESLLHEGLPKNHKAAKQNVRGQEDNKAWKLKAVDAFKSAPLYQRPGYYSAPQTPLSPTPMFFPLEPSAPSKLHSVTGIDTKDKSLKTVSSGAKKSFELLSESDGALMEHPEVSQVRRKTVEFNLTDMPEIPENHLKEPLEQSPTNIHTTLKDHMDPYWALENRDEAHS
Where a name gives a salt, the structure may show the parent alone.
valueKind: anion transport activity (kinetics of I- efflux) in comparison to untreated cells

molecule: COc1ccc(-c2coc3cc(OCOC(=O)OC(C)C)cc(O)c3c2=O)cc1
result: noticeable increased

molecule: COC(=O)/C=C/C(=O)Oc1cc(OC(=O)/C=C/C(=O)OC)c2c(=O)c(-c3ccc(OC)cc3)coc2c1 [Biochanin A-di(methyl fumarate), Biochanin A di(methyl fumarate)]
result: strongly increased

molecule: COc1ccc(-c2coc3cc(OP(=O)([O-])[O-])cc(O)c3c2=O)cc1.[Na+].[Na+] [Biochanin A-7-phosphate disodium salt]
result: noticeable increased

molecule: COc1ccc(-c2coc3cc(OC(=O)OC(C)C)cc(OC(=O)OC(C)C)c3c2=O)cc1 [Biochanin A diisopropyl carbonate]
result: strongly increased

---

target: mutant BEST1 R218C (Homo sapiens, UniProt O76090, R218C); construct: expressed in transfected cells; test: YFP-based I- efflux assay in MDCKII cells co-expressing YFP and mutant BEST1 R218C; assay type: cell-based; conditions: 5 μM, compound addition for 24 h, FIGS. 6-8
valueKind: anion transport activity (kinetics of I- efflux) in comparison to untreated cells

Examples from the recorded data:
molecule: COc1ccc(-c2coc3cc(OCOC(=O)C(C)(C)C)cc(O)c3c2=O)cc1
result: noticeable increased
--
molecule: C=CC(=O)Oc1cc(O)c2c(=O)c(-c3ccc(OC)cc3)coc2c1 [Biochanin A-7-acrylate]
result: noticeable increased
--
molecule: C=CC(=O)Oc1cc(OC(=O)C=C)c2c(=O)c(-c3ccc(OC)cc3)coc2c1 [Biochanin A diacrylate]
result: strongly increased
--
molecule: CCCCC(=O)Oc1cc(OC(=O)CCCC)c2c(=O)c(-c3ccc(OC)cc3)coc2c1 [Biochanin A dipentanoate]
result: strongly increased
--
molecule: COc1ccc(-c2coc3cc(OC(=O)C(C)C)cc(OC(=O)C(C)C)c3c2=O)cc1 [Biochanin A diisopropylate]
result: strongly increased
--
molecule: COc1ccc(-c2coc3cc(OC(=O)OC(C)C)cc(O)c3c2=O)cc1 [Biochanin A-7-isopropyl carbonate]
result: strongly increased
--
molecule: COc1ccc(-c2coc3cc(OC(=O)C(C)(C)C)cc(OC(=O)C(C)(C)C)c3c2=O)cc1 [Biochanin A-dipavalate, Biochanin A dipivalate]
result: noticeable increased
--
molecule: CCCCNC(=O)Oc1cc(OC(=O)NCCCC)c2c(=O)c(-c3ccc(OC)cc3)coc2c1 [Biochanin A di(butylcarbamate)]
result: strongly increased

Continue with the molecule presented below.
## Input # query: anion transport activity (kinetics of I- efflux) in comparison to untreated cells of entry COc1ccc(-c2coc3cc(OC(C)=O)cc(OC(C)=O)c3c2=O)cc1 [Biochanin A diacetate]
## Output strongly increased
